Attribute: weight increase rate (%)
# assayDetails: Experimental Example 4: comparison of hygroscopicity by weight gain over time (40 to 46% RH)
# Assay type: physicochemical
# measurementConditions: 24° C., 60 minutes
Could you give me the number in %? Just the number is fine.

CCOC(=O)[C@H](C)N.O=S(=O)(O)c1ccccc1 [L-Ala-OEt BsOH salt, L-alanine ethyl ester benzenesulfonate] = 0.93
CCOC(=O)[C@H](C)N.O=S(=O)(O)c1ccc(Cl)cc1 [L-Ala-OEt 4-CBS salt] = 1.81
CCOC(=O)[C@H](C)N.Cl [L-Ala-OEt HCl salt, alanine ethyl ester hydrochloride] = 7.76

Proceed to the following item.
I would be grateful if you could share the reported weight increase rate (%) for CCOC(=O)[C@H](C)N.CS(=O)(=O)O [L-Ala-OEt MsOH salt, L-alanine ethyl ester methanesulfonate] . 0.19

----------
# assayDetails: Experimental Example 4: comparison of hygroscopicity by weight gain over time (40 to 46% RH)
# Format: physicochemical
# measurementConditions: 24° C., 180 minutes
# Procedure: The L-Ala-OEt HCl salt, L-Ala-OEt MsOH salt, L-Ala-OEt BsOH salt, L-Ala-OEt 4-CBS salt, L-Ala-OEt 4-EBS salt, L-Ala-OEt 2,4-DMBS salt, and L-Ala-OEt 2,5-DMBS salt were measured in an amount of about 0.3 g each, left standing in a thermostatic chamber at a temperature of 24° C. and a humidity of 40 to 46% RH, and the hygroscopicity was compared based on the weight gain with the lapse of time. […]
Measured weight increase rate (%) values are reported for all entries that follow.
Report the value in % with no unit label.

Examples with their reported weight increase rate (%) follow.
CCOC(=O)[C@H](C)N.O=S(=O)(O)c1ccc(Cl)cc1 [L-Ala-OEt 4-CBS salt] = 2.27
CCOC(=O)[C@H](C)N.Cl [L-Ala-OEt HCl salt, alanine ethyl ester hydrochloride] = 10.69
CCOC(=O)[C@H](C)N.O=S(=O)(O)c1ccccc1 [L-Ala-OEt BsOH salt, L-alanine ethyl ester benzenesulfonate] = 1.08

Query molecule follows.
For the molecule shown here, CCOC(=O)[C@H](C)N.CS(=O)(=O)O [L-Ala-OEt MsOH salt, L-alanine ethyl ester methanesulfonate] , give the reported weight increase rate (%). 0.55

----------
# assayDetails: Experimental Example 5: comparison of hygroscopicity by weight gain over time (60 to 66% RH)
# Type: physicochemical
# measurementConditions: 24 EC, 65 minutes
Measured weight increase rate (%) of individual entries
Reply numerically in %, unit not repeated.

COC(=O)[C@H](C)N.Cl [L-Ala-OMe HCl salt, alanine methyl ester hydrochloride, reference compound] = 10.42
CCOC(=O)[C@H](C)N.O=S(=O)(O)c1ccc(Cl)cc1 [L-Ala-OEt 4-CBS salt] = 4.10
CCOC(=O)[C@H](C)N.CS(=O)(=O)O [L-Ala-OEt MsOH salt, L-alanine ethyl ester methanesulfonate] = 0.41

// next entry
Reported weight increase rate (%) for CCOC(=O)[C@H](C)N.O=S(=O)(O)c1ccccc1 [L-Ala-OEt BsOH salt, L-alanine ethyl ester benzenesulfonate] : what is it? 2.22

----------
# assayDetails: Experimental Example 5: comparison of hygroscopicity by weight gain over time (60 to 66% RH)
# Format: physicochemical
# measurementConditions: 24 EC, 95 minutes
Measured weight increase rate (%) by item
Supply the numeric figure in %, leaving out any unit text.

Some compounds with known weight increase rate (%) results, for comparison:
CCOC(=O)[C@H](C)N.CS(=O)(=O)O [L-Ala-OEt MsOH salt, L-alanine ethyl ester methanesulfonate] = 0.44
COC(=O)[C@H](C)N.Cl [L-Ala-OMe HCl salt, alanine methyl ester hydrochloride, reference compound] = 12.77
CCOC(=O)[C@H](C)N.O=S(=O)(O)c1ccccc1 [L-Ala-OEt BsOH salt, L-alanine ethyl ester benzenesulfonate] = 2.28

Would you kindly look at the next entry?
Would you mind telling me what weight increase rate (%) value was observed for CCOC(=O)[C@H](C)N.O=S(=O)(O)c1ccc(Cl)cc1 [L-Ala-OEt 4-CBS salt] ? 4.46
